# TESTED ON: CYP1A2 (Homo sapiens)
# Construct: recombinant CYP450, commercial (Research Institute for Liver Diseases, Shanghai); P450-Glo Screening System (Promega)
# Sequence (P05177 2-516): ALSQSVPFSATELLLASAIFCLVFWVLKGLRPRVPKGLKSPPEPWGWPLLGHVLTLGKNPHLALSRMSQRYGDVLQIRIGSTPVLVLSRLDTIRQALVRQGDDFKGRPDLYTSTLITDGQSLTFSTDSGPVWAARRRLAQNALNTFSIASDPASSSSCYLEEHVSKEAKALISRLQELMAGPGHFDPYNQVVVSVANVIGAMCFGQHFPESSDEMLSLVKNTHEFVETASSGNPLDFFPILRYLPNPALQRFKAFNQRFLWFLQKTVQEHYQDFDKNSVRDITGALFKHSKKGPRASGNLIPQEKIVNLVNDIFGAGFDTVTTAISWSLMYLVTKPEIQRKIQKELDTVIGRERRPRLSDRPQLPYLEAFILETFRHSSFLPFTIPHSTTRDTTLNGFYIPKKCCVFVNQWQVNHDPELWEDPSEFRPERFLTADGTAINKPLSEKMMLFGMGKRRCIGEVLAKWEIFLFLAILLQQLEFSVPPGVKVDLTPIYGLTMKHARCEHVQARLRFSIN
# EXPERIMENT DESCRIPTION: P450-Glo inhibition assay, recombinant CYP
# Format: biochemical
MEASURED PROPERTY: pIC50
pIC50 here is simply -log10 of the concentration when that concentration is written in mol/L.

Enquiry: Which pIC50 is reported for this compound? CC(C)=CCOc1c2occc2cc2ccc(=O)oc12 [imperatorin]
Return: 7.10
